test system: ATP; test: switch fluorescence ratio, 500 uM ATP over buffer (Cy3 cluster intensity, sum of 5 cycles each) (fold (ratio)); higher = stronger signal-on switching upon ATP binding; sequences stand for … in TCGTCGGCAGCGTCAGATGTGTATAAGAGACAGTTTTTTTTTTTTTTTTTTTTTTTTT…TC; settings: aptamer strand: ATP DNA aptamer (quencher-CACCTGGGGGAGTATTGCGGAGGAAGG + anchor), 100 nM annealed; ATP concentration: 500 uM;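 also: ATP exposure 15 min at 22 °C before imaging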
Please mark rule met if the recorded switch fluorescence ratio is equal to or greater than 1, and rule not met if it falls below.

ATGTGCCGTC: rule met
GCTAGATCGT: rule not met
TTTGGGTTGG: rule met
TGCTGCGCTT: rule met
AGTAGTTATT: rule not met

Please find the next sequence below.
Qu. In plain terms: is recorded switch fluorescence ratio at least 1 for "TATCGGGGCA" ?
Ans. rule not met
